ASSAY SYSTEM: T1, EsCas13d, nuclease-dead (Eubacterium siraeum, UniProt B0MS50, R295A;H300A;R849A;H854A)
T1 sequence: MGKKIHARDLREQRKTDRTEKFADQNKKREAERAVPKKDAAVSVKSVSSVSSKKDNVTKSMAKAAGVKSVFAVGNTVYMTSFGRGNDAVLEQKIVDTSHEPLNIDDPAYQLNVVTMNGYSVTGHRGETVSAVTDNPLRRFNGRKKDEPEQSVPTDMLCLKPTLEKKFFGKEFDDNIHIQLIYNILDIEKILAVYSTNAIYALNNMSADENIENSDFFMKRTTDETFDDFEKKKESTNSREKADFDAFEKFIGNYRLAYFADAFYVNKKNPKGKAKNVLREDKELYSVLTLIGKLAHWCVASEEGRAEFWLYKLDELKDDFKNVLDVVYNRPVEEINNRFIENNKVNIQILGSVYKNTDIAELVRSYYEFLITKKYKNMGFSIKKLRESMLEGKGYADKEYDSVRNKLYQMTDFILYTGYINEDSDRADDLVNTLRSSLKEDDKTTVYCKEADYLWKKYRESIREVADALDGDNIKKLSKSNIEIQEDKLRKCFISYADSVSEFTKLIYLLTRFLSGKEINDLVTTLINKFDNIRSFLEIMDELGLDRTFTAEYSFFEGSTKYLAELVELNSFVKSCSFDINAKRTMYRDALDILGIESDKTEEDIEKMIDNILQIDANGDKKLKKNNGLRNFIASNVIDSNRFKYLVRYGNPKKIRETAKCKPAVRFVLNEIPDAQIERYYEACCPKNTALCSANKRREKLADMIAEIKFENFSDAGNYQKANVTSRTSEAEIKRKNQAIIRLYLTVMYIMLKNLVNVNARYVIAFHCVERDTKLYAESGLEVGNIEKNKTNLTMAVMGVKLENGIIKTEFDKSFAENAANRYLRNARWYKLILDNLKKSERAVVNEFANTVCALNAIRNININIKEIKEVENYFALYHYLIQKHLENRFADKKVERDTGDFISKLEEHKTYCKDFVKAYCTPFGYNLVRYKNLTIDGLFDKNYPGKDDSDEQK
EXPERIMENT DESCRIPTION: crRNA (strand 1, pre-loaded); Mg2+; 40 mM Tris-HCl pH 7.5, 150 mM NaCl, 6 mM MgCl2, 1 mM DTT, 0.1% Tween-20, 0.2 mg/ml BSA; 25 C; 10 min per concentration, then washed
COND: tags: His6-TwinStrep-SUMO cleaved; N-terminal SNAP kept (SNAP-Surface 488); label: 3' end held by stalled T7 RNA polymerase
QUANTITY MEASURED: pKd
Please keep in mind that pKd is minus log10 of the molar concentration; only the number is needed.

Return reported pKd; argument: target 2 MT 5'PFS GUC 3'PFS CAC (mixed) RNA 1: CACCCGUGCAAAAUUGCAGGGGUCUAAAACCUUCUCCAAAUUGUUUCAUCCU RNA 2: GGGAAUGGAUCCACAUCUACGAAUUCGUCAGGAUGAAACAAUUUGGAGAAGCACAGAUCGGAAGAGCACACGU
7.87

Return reported pKd; argument: target 1 insC 3' of 20,insG 3' of 2 (mixed) RNA 1: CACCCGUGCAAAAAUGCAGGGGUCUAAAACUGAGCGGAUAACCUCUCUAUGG RNA 2: GGGAAUGGAUCCACAUCUACGAAUUCGUACCACUAGAGAGGUUAUCCGCUCGACCGAGAUCGGAAGAGCACACGU
7.94

Return reported pKd; argument: target 1 insA 3' of 17,insA 3' of 5 (mixed) RNA 1: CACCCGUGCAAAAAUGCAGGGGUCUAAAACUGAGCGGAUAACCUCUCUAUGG RNA 2: GGGAAUGGAUCCACAUCUACGAAUUCGUACCAUAGAAGAGGUUAUCCGACUCACCGAGAUCGGAAGAGCACACGU
7.97

Return reported pKd; argument: target 1 insU 3' of 15,insC 3' of 5 (mixed) RNA 1: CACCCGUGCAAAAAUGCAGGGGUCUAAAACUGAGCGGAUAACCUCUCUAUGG RNA 2: GGGAAUGGAUCCACAUCUACGAAUUCGUACCAUAGAGUAGGUUAUCCGCCUCACCGAGAUCGGAAGAGCACACGU
7.77
